Measured values drawn from patent US20240327406A1 for this set.

assay protocol: Determination of blood and brain tissue binding (equilibrium dialysis)
Format: in vitro ADME, Sprague Dawley rat
condition summary: Sprague Dawley, whole blood diluted 1:1 (v/v) with isotonic phosphate buffer; rat whole blood, 0.5 micromolar, 5 h at 37° C.; read-out: % FU Blood
Please assign not met whenever fraction unbound at 5 h, 0.5 micromolar is at or above 0.01, and met whenever it is below.

> print(dat)
                                   molecule  assigned.class
1  Cc1ccc(Oc2ccc(-n3c(=O)[nH]c4cccnc43)cn2)cc1OC(F)(F)F             met
2  Cc1ccc(Oc2ccc(-n3c(=O)[nH]c4cnccc43)cn2)cc1OC(F)(F)F [RE13, reference compound]         not met
3  O=c1[nH]c2cccnc2n1-c1cnc(Oc2cccc(OC(F)(F)F)c2)nc1         not met
4  Cc1ccc(Oc2ccc(-n3c(=O)[nH]c4cncnc43)cn2)cc1OC(F)(F)F [RE12, reference compound]             met

###

system: UniProt P48547
Sequence (P48547 1-501 limits assumed): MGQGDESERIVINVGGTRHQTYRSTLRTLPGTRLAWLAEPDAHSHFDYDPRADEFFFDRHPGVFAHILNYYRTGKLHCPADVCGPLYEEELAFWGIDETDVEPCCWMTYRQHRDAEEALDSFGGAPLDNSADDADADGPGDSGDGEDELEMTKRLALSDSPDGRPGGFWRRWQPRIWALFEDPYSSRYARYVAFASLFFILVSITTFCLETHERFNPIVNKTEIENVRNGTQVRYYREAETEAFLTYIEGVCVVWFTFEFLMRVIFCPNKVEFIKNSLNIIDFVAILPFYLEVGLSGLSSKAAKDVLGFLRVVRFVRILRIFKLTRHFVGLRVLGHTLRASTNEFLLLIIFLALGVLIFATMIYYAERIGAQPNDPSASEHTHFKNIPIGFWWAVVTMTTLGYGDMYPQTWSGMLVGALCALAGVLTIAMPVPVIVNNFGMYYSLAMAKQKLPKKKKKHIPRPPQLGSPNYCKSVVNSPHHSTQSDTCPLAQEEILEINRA
assay protocol: Measurement of Kv3 channel modulation: Kv3.1 assay (IonWorks Quattro whole-cell electrophysiology)
Type: cell-based
condition summary: Kv3.1 pEC50, Table 3, Reference Examples and corresponding Examples; rounded to one decimal place
measure name: EC50

> print(dat)
                           structure.string  measure.name  result
1  O=c1[nH]c2ncccc2n1-c1ccc(Oc2cccc3c2C2(CC2)CO3)nc1          EC50  631 nM

###

system: UniProt P48547
assay protocol: Measurement of Kv3 channel modulation: Kv3.1 assay (IonWorks Quattro whole-cell electrophysiology)
Type: cell-based
condition summary: Table 2, Example compounds; rounded to one decimal place; some compounds with two data sets (n given in cell); read-out: Kv3.1 pEC50 (converted)
Labelling: EC50 reported below 1000 nM becomes true (1); at or above becomes false (0).

> print(dat)
                            structure.string  assigned.class
 1  Cc1ccc(Oc2ccc(-n3c(=O)[nH]c4cccnc43)cn2)c2c1OCC21CC1        true (1)
 2  Cc1cnc2c(c1)[nH]c(=O)n2-c1cnc(Oc2cccc3c2C2(CC2)CO3)cn1        true (1)
 3  Cn1cc2[nH]c(=O)n(-c3cnc(Oc4cccc5c4C4(CC4)CO5)nc3)c2n1        true (1)
 4  Cn1cc2[nH]c(=O)n(-c3cnc(Oc4cccc5c4C4(CC4)CO5)cn3)c2n1       false (0)
 5  Cc1ncc2[nH]c(=O)n(-c3ccc(Oc4cccc5c4C4(CC4)CO5)nc3)c2n1        true (1)
 6  CC1(C)COc2cccc(Oc3ccc(-n4c(=O)[nH]c5cccnc54)cn3)c21        true (1)
 7  Cc1ccc(Oc2cnc(-n3c(=O)[nH]c4cccnc43)cn2)c2c1OCC21CC1        true (1)
 8  Cc1ccc(Oc2ncc(-n3c(=O)[nH]c4cccnc43)cn2)c2c1OCC2(C)C       false (0)
 9  Cc1ccc(Oc2ccc(-n3c(=O)[nH]c4cccnc43)cn2)cc1OC(F)(F)F       false (0)
10  Cc1ncc2[nH]c(=O)n(-c3ccc(Oc4ccc(C)c5c4C4(CC4)CO5)nc3)c2n1        true (1)
11  COc1cccc(Oc2ncc(-n3c(=O)[nH]c4cccnc43)cn2)c1       false (0)
12  Cc1ccnc2c1[nH]c(=O)n2-c1ccc(Oc2cccc3c2C2(CC2)CO3)nc1        true (1)
13  COc1cccc(Oc2ccc(-n3c(=O)[nH]c4cnc(C)nc43)cn2)c1       false (0)
14  O=c1[nH]c2cccnc2n1-c1cnc(Oc2cccc(OC(F)(F)F)c2)nc1       false (0)
15  Cc1ccc2[nH]c(=O)n(-c3cnc(Oc4cccc5c4C4(CC4)CO5)cn3)c2n1        true (1)
16  O=c1[nH]c2cccnc2n1-c1cnc(Oc2cccc(OC(F)(F)F)c2)cn1       false (0)
